From: PubChem BioAssay AID1578

test: NOD1 signaling inhibitors, primary screen, cell-based, luminescence, uHTS (AID 1578); conditions: NOD1-driven NF-kB luciferase reporter cells, at 4 µM, active compounds read high;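 also: HEK-293T reporter cells stimulated with the NOD1 agonist gamma-tri-DAP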
About 3,000 (1%) of roughly 290,000 compounds were called active. For the sample, actives were picked, then their nearest neighbours and some compounds at random.
readoutName: inhibition (%)
Give bare numbers, in %.

Okay, here is my list. What is inhibition for each of these?
1. Cc1cc(NC(=O)c2ccc(Br)o2)ccc1NC(=O)c1ccco1
2. Cc1ccc(S(=O)(=O)CC(=O)Nc2cc(C)on2)cc1
3. COc1cc(/C=C/C(=O)N2CCOCC2)ccc1OCc1ccccc1

*A*
-55.3
24.4
-102

Okay, here is my list. What is inhibition for each of these?
1. N=c1c2c(n(Cc3ccc(F)cc3)c3c1CCC3)CCCC2
2. Fc1ccc(/C=N/NC(=S)Nc2ccc(Cl)cc2Cl)cc1
3. CCOC(=O)CNC(=O)C(CC(N)=O)NC(=O)OC(C)(C)C (stereo not drawn)
4. CCN1/C(=C/c2ccc3ccccc3[n+]2CCCS(=O)(=O)[O-])C=Cc2cc(C)ccc21

*A*
1: 22.1; 2: 8.9; 3: -7.6; 4: -1.5

###

test: NOD1 signaling inhibitors, primary screen, cell-based, luminescence, uHTS (AID 1578); details: NOD1-driven NF-kB luciferase reporter cells, at 4 µM, active compounds read high;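 also: HEK-293T reporter cells stimulated with the NOD1 agonist gamma-tri-DAP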
The whole screen tested about 290,000 compounds, of which about 3,000 (1%) were called active. The entries come from a sample that favours actives as a whole.
Mark MET for reported inhibition of -10% or greater; mark NOT MET for anything smaller.

*Q* Test whether the compound CN(CCO)c1ccc(/C=N/Nc2nncc3ccccc23)cc1 records inhibition of -10% or higher.
*A* MET

*Q* Test whether the compound CN1/C(=C\C(=O)C[n+]2cccc(Br)c2)C(C)(C)c2ccccc21 records inhibition of -10% or higher.
*A* MET

*Q* Test whether the compound CCN1C(=O)C(CC(=O)Nc2ccc(OC)cc2)N(CCCN2CCN(c3ccc(F)cc3)CC2)C1=S (stereo unspecified) records inhibition of -10% or higher.
*A* NOT MET

*Q* Test whether the compound O=C(C[N+]1(CC#Cc2ccccc2)CCCCC1)c1ccc(Cl)cc1 records inhibition of -10% or higher.
*A* NOT MET

*Q* Test whether the compound C/C(=N/Nc1ncc(C(F)(F)F)cc1Cl)c1ccncc1 records inhibition of -10% or higher.
*A* MET

*Q* Test whether the compound N#CC(C#N)=C1C=CC=CN1/C(=C\c1ccco1)C(=O)c1ccc(Br)cc1 records inhibition of -10% or higher.
*A* NOT MET

*Q* Test whether the compound CCOC(=O)COc1ccc2c(C)cc(=O)oc2c1C(=O)c1ccccc1 records inhibition of -10% or higher.
*A* MET

*Q* Test whether the compound O=C(NCc1ccco1)C12CN(Cc3ccccc3)CC1C(c1ccc([N+](=O)[O-])cc1)=NO2 (stereo unspecified) records inhibition of -10% or higher.
*A* MET

*Q* Test whether the compound O=C(C[N+]1(CC#Cc2ccccc2)CCCCC1)c1ccccc1 records inhibition of -10% or higher.
*A* MET

*Q* Test whether the compound CC(=O)Nc1ccc(NC(=O)C(C)Sc2nnc(-c3cccs3)o2)cc1 (stereo unspecified) records inhibition of -10% or higher.
*A* NOT MET

*Q* Test whether the compound c1ccc(CCn2cnc3ccccc32)cc1 records inhibition of -10% or higher.
*A* NOT MET
